The reported measurements were obtained from ChEMBL document CHEMBL1687866.

Reported Cell viability values are given for each entry in this list.
# Protocol Details: Cytotoxicity against human SW1116 cells assessed as cell viability rate at 10 ug/ml after 24 hrs by MTT assay
# Format: functional, SW 1116
Attribute Measured: Cell viability (%)

INSERT INTO assay_data (compound, attribute_measured, test_value) VALUES
  ('CC1(C)CC(=O)C2=C(C1)OC(=O)C(NC(=O)c1ccccc1)C2c1ccc([N+](=O)[O-])cc1 (mixture of isomers)', 'Cell viability', 46.6),
  ('O=C1CCCC2=C1C(c1ccccc1Br)C(NC(=O)c1ccccc1)C(=O)O2 (mixture of isomers)', 'Cell viability', 99.27),
  ('O=C1CCCC2=C1C(c1ccccc1Cl)C(NC(=O)c1ccccc1)C(=O)O2 (mixture of isomers)', 'Cell viability', 87.56),
  ('COc1cccc2c1C(=O)c1c(O)c3c(c(O)c1C2=O)C[C@@](O)(C(=O)CO)C[C@@H]3O[C@H]1C[C@H](N)[C@H](O)[C@H](C)O1.Cl [DOXORUBICIN HYDROCHLORIDE]', 'Cell viability', 67.34),
  ('Cc1ccc(C2C3=C(CCCC3=O)OC(=O)C2NC(=O)c2ccccc2)cc1 (mixture of isomers)', 'Cell viability', 107.87),
  ('CC1(C)CC(=O)C2=C(C1)OC(=O)C(NC(=O)c1ccccc1)C2c1ccccc1Br (mixture of isomers)', 'Cell viability', 55.74),
  ('CC1(C)CC(=O)C2=C(C1)OC(=O)C(NC(=O)c1ccccc1)C2c1ccco1 (stereo not given)', 'Cell viability', 42.02),
  ('CC1(C)CC(=O)C2=C(C1)OC(=O)C(NC(=O)c1ccccc1)C2c1ccc(Cl)cc1 (mixture of isomers)', 'Cell viability', 64.34),
  ('COc1cc(C2C3=C(CCCC3=O)OC(=O)C2NC(=O)c2ccccc2)cc(OC)c1OC (mixture of isomers)', 'Cell viability', 94.07),
  ('Cc1ccc(C2C3=C(CC(C)(C)CC3=O)OC(=O)C2NC(=O)c2ccccc2)cc1 (mixture of isomers)', 'Cell viability', 82.67),
  ('CC1(C)CC(=O)C2=C(C1)OC(=O)C(NC(=O)c1ccccc1)C2c1cccs1 (mixture of isomers)', 'Cell viability', 50.51),
  ('CC1(C)CC(=O)C2=C(C1)OC(=O)C(NC(=O)c1ccccc1)C2c1ccccc1Cl (mixture of isomers)', 'Cell viability', 85.08),
  ('COc1cc(C2C3=C(CC(C)(C)CC3=O)OC(=O)C2NC(=O)c2ccccc2)cc(OC)c1OC (mixture of isomers)', 'Cell viability', 92.18),
  ('CC1(C)CC(=O)C2=C(C1)OC(=O)C(NC(=O)c1ccccc1)C2c1ccc(F)cc1 (mixture of isomers)', 'Cell viability', 59.03),
  ('O=C1CCCC2=C1C(c1ccc(F)cc1)C(NC(=O)c1ccccc1)C(=O)O2 (mixture of isomers)', 'Cell viability', 83.22);
